# study_system: T1, MMP9 catalytic domain (UniProt P14780 107-444)
# T1 construct: Matrix Metalloproteinase 9 (MMP9), catalytic domain; source: expressed recombinantly and purified as published before [12]
# T1 sequence (P14780 107-444): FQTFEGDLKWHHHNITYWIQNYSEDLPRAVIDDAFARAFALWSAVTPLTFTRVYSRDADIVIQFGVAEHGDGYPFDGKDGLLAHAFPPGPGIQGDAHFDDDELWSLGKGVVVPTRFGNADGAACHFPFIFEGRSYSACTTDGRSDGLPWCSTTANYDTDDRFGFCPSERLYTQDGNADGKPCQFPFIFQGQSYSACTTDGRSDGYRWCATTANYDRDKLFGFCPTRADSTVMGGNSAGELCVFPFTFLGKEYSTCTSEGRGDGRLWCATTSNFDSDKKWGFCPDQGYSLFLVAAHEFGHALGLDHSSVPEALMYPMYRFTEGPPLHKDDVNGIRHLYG
# assay_name: enzyme activity (inhibition) assay with a fluorogenic substrate; various concentrations of N-TIMP2 pre-incubated 1 hour with MMP9 (0.2 nM) or MMP14 (0.5 nM) in 50 mM Tris-HCl, 0.15 M NaCl, 10 mM CaCl2, 0.02% Brij 35, pH 7.5, 37°C; fraction of enzyme activity fitted to a 1:1 binding model to give Kd
# experimental_setup: both partners purified
measured_endpoint: pKd
Note on units: pKd is unitless, being -log10 of a concentration expressed in mol/L.

Input: For the binder N-TIMP2 WT (N-terminal domain of Tissue Inhibitor of Metalloproteinases 2, residues 1-127) (domain or fragment, human, UniProt P16035 27-153, looked up, Monomeric fraction used; also called WT N-TIMP2) CSCSPVHPQQAFCNADVVIRAKAVSEKEVDSGNDIYGNPIKRIQYEIKQIKMFKGPEKDIEFIYTAPSSAVCGVSLDVGGKKEYLIAGKAEGDGKMHITLCDFIVPWDTLSTTQKKSLNHRYQMGCE , give its reported pKd.
Output: 9.05

Input: Input N-TIMP2 S68W (domain or fragment, human, UniProt P16035 27-153, looked up, TIMP2, human, N-terminal domain, residues 1-127) CSCSPVHPQQAFCNADVVIRAKAVSEKEVDSGNDIYGNPIKRIQYEIKQIKMFKGPEKDIEFIYTAPWSAVCGVSLDVGGKKEYLIAGKAEGDGKMHITLCDFIVPWDTLSTTQKKSLNHRYQMGCE , output reported pKd.
Output: 9.43

Values were extracted from paper PMC3977929.
